Test system: TGF-β
Assay: AlphaScreen SureFire p-SMAD3 (Ser423/425) assay, TGF-β-stimulated cells
Type: cell-based
Conditions: Mus musculus; p-SMAD3 (Ser423/425) AlphaScreen in cell lysate; MPC-11; TGF-β stimulation; read-out: TGF-β: inhibition of TGF-β signaling, TGF-β pSMAD (MPC-11)
pIC50: −log10 of the molar value.
Overview of reported pIC50 across a group of compounds:

| Compound | pIC50 |
| --- | --- |
| Fc1cc(F)c(-c2nc3n(c2-c2ccc4ncnn4c2)CCC3)cc1F [Compound 14] | 6.00 to 7.00 |
| Cc1cc(-c2nc3n(c2-c2ccc4ncccc4c2)CCC3)c(C)cc1F [Compound 311] | < 6.00 |

Incoming: Value lookup for pIC50; key = Fc1ccc(-c2nc3occn3c2-c2ccc3ncsc3c2)c(F)c1 [Compound 156]
Outgoing: 7.00 to 7.30

Incoming: Note, next up: Fc1cc(F)c(F)c(-c2nc3n(c2-c2ccc4nccnc4c2)CCC3)c1 [Compound 238]
Outgoing: 6.00 to 7.00

Incoming: Note, next up: CC(=O)N1CCn2c1nc(-c1cc(F)c(F)cc1F)c2-c1ccc2ncnn2c1 [Compound 104]
Outgoing: < 6.00

Incoming: Note, next up: Fc1ccc(Cl)cc1-c1nc2n(c1-c1ccc3nccnc3c1)CCC2 [Compound 337]
Outgoing: > 7.30

Incoming: Note, next up: Fc1ccc(-c2nc3n(c2-c2ccc4ncccc4c2)CCC3)c(F)c1 [Compound 211]
Outgoing: 6.00 to 7.00

Incoming: Note, next up: Cc1ccc(F)cc1-c1nc2n(c1-c1ccc3ncnn3c1)CCC2 [Compound 58]
Outgoing: < 6.00
